target: GST tagged LXRbeta LBD (ligand binding domain) (Homo sapiens, UniProt P55055); construct: purchased Invitrogen pv4658.pps; assay: LanthaScreen TR-FRET Liver X Receptor Coactivator Assay, LXR beta-LBD; type: biochemical; settings: Inflection Point (potency), co-activator recruitment, relative to reference T0901317; read-out: LXR beta IP
Sequence (P55055 222-460 limits assumed): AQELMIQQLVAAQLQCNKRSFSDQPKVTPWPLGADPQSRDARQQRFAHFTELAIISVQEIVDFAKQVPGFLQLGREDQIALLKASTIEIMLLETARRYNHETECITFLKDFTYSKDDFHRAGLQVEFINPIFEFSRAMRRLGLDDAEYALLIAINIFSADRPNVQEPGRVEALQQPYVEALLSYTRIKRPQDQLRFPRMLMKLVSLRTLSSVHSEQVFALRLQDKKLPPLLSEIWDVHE
pEC50: −log10 of the molar value.
QUANTITY_NAME: pEC50

* CN(C)C(=O)c1ccc(N2CCC(C3CCN(C(=O)C4(c5ccc(O)cc5)CCCC4)CC3)CC2)cc1Cl | 6.97
* Cc1cccc(C2(C(=O)N3CCC(C4CCN(c5ccc(C(=O)N(C)C)c(Cl)c5)CC4)CC3)CCC2)c1 | 6.91
* CC(=O)Oc1ccc(C(C)(C)C(=O)N2CCC(C3CCN(c4ccc(C(=O)N(C)C)c(Cl)c4)CC3)CC2)cc1 | 7.04
* CN(C)C(=O)c1ccc(N2CCC(C3CCN(C(=O)C(O)(C(F)(F)F)C(F)(F)F)CC3)CC2)nc1Cl | 7.47
* CN(C)C(=O)c1ccc(N2CCC(C3CCN(C(=O)C4(C(F)(F)F)CCCCC4)CC3)CC2)cc1Cl | 7.59
* CN(C)C(=O)c1ccc(N2CCC(C3CCN(S(=O)(=O)c4c(Cl)cccc4Cl)CC3)CC2)cc1Cl | 7.68
* CN(C)C(=O)c1ccc(N2CCC(C3CCN(C(=O)C(F)(F)c4ccccc4)CC3)CC2)cc1Cl | 7.27
* Cc1ccc(C(C)(C)C(=O)N2CCC(C3CCN(c4ccc(C(=O)N(C)C)c(Cl)c4)CC3)CC2)cc1 | 6.71
* CC(C)C(O)(C(=O)N1CCC(C2CCN(c3ccc(C(=O)N4CC(F)(F)C4)c(Cl)c3)CC2)CC1)C(F)(F)F (centres unmarked) | 6.53
* CN(C)C(=O)c1ccc(N2CCC(C3CCN(C(=O)C4(c5ccccc5)CC4)CC3)CC2)cc1Cl | 6.85
* CN(CCO)C(=O)c1ccc(N2CCC(C3CCN(C(=O)[C@](O)(c4ccccc4)C(F)(F)C(F)(F)F)CC3)CC2)cc1Cl | 7.59
* CCC1CCCN1C(=O)c1ccc(N2CCC(C3CCN(C(=O)[C@](O)(c4ccccc4)C(F)(F)F)CC3)CC2)cc1Cl (some centres unmarked) | 6.84
* CC(C)C(O)(C(=O)N1CCC(C2CCN(c3ccc(C(=O)N(C)C)c(Cl)n3)CC2)CC1)C(F)(F)F (stereo in doubt) [Example B-5] | 7.57
* CC(C)CC(O)(C(=O)N1CCC(C2CCN(c3ccc(C(=O)N(C)C)c(Cl)c3)CC2)CC1)C(F)(F)F (centres unmarked) [Example A-89] | 6.99
